- system_tested: T1, mouse FOLR1 (recombinant antigen) (mouse, UniProt P35846 25-232, limits assumed)
- T1 construct: also called mFOLR1
- assay_procedure: ELISA on mFOLR1
measured_quantity: pEC50
Scale: pEC50 equals -log10([C]), with [C] in mol/L.

Recorded results for 2 binders are shown here.
- binder: "Anti-FOLR1x2; Anti-DLL3x2; GGSx4 (bispecific tetravalent VHH-VHH-Fc) (bispecific antibody, not shown: a dimerising Fc or GST, homodimer; 104,665 Da; also called (GGS)4) QVQLVESGGGLVQPGGSLRLSCAASGFTVSNSVMAWYRQTPGNEREFVAIINSIGITNYADSVKGRFTISRDNSKNTLYLQMNSLRAEDTAVYVCNRNFDRIYWGQGTLVTVSSGGSGGSGGSGGSEVQLVESGGGEVQPGGSLRLSCAASGSIFSINAMGWYRQAPGKQRELVAGFTGDTNTIYAESVKGRFTISRDNAKNTVYLQMSSLRAEDTAVYYCAADVQLFSRDYEFYWGQGTLVTVKP"
  measured_quantity: "pEC50"
  numeric_value: 10.15
- binder: "Anti-FOLR1x2; Anti-DLL3x2; GGSx3 (bispecific tetravalent VHH-VHH-Fc) (bispecific antibody, not shown: a dimerising Fc or GST, homodimer; 104,263 Da; also called (GGS)3) QVQLVESGGGLVQPGGSLRLSCAASGFTVSNSVMAWYRQTPGNEREFVAIINSIGITNYADSVKGRFTISRDNSKNTLYLQMNSLRAEDTAVYVCNRNFDRIYWGQGTLVTVSSGGSGGSGGSEVQLVESGGGEVQPGGSLRLSCAASGSIFSINAMGWYRQAPGKQRELVAGFTGDTNTIYAESVKGRFTISRDNAKNTVYLQMSSLRAEDTAVYYCAADVQLFSRDYEFYWGQGTLVTVKP"
  measured_quantity: "pEC50"
  numeric_value: 10.05

### Prompt Request the reported pEC50 associated with Anti-FOLR1x2; Anti-DLL3x2; GGGGSx3 (bispecific tetravalent VHH-VHH-Fc) (bispecific antibody, not shown: a dimerising Fc or GST, homodimer; 104,948 Da; also called (GGGGS)3) QVQLVESGGGLVQPGGSLRLSCAASGFTVSNSVMAWYRQTPGNEREFVAIINSIGITNYADSVKGRFTISRDNSKNTLYLQMNSLRAEDTAVYVCNRNFDRIYWGQGTLVTVSSGGGGSGGGGSGGGGSEVQLVESGGGEVQPGGSLRLSCAASGSIFSINAMGWYRQAPGKQRELVAGFTGDTNTIYAESVKGRFTISRDNAKNTVYLQMSSLRAEDTAVYYCAADVQLFSRDYEFYWGQGTLVTVKP
### Response 10.10

### Prompt Request the reported pEC50 associated with FOLR1 VHH (VHH-Fc control) (Fc fusion, not shown: a dimerising Fc or GST) QVQLVESGGGLVQPGGSLRLSCAASGFTVSNSVMAWYRQTPGNEREFVAIINSIGITNYADSVKGRFTISRDNSKNTLYLQMNSLRAEDTAVYVCNRNFDRIYWGQGTLVTVSS
### Response 10.10
